- System: LOX IMVI melanoma
- measurement.protocol: NCI-60 one-dose screen, 48 h (100 = growth as untreated, 0 = no growth, -100 = all killed)
- condition.parameters: 10 µM unless noted
The panel holds about 83,000 compounds, 20% with a hit somewhere; the sample as a whole holds those more often.
Recorded growth by entry
recorded.metric: growth (%)

compound: COc1cc2nc(SCc3cc(OC)c(OC)c(OC)c3)n(Cc3ccccc3)c(=O)c2cc1OC
recorded.metric: growth
value.measured: 37.7

compound: NC(CC(N)C(=O)O)C(=O)O (stereo not given)
recorded.metric: growth
value.measured: 99.4

compound: C/C(=C\c1csc(C)n1)[C@@H]1C[C@@H]2O[C@]2(C)CCC[C@H](C)[C@H](O)[C@@H](C)C(=O)C(C)(C)[C@@H](O)CC(=O)N1
recorded.metric: growth
value.measured: -100

compound: CC(C)CCN(CCCNc1c2c(nc3ccccc13)CCCC2)CCC(C)C
recorded.metric: growth
value.measured: 76.4

compound: O=C(c1c[nH]c2ccccc12)C(Sc1nc2ccccc2c(=O)[nH]1)c1ccccc1 (stereo not given)
recorded.metric: growth
value.measured: 95.3

compound: O=C(CCl)NCCNc1nccc(Nc2ccc(S(=O)(=O)Nc3ccccn3)cc2)n1
recorded.metric: growth
value.measured: -64.1

compound: CCn1cc(C(=O)O)c(=O)c2cc(F)c(N3CCN(S(=O)(=O)c4cccc5ccccc45)CC3)cc21
recorded.metric: growth
value.measured: -39

compound: CCSc1nnc(NC(=O)COc2ccc(Cl)cc2C)s1
recorded.metric: growth
value.measured: 93.8

compound: O=C(O)C(=Cc1c2ccccc2cc2ccccc12)C(=O)O
recorded.metric: growth
value.measured: 86.8

compound: O=C(Nc1ccc(Br)c(Cl)c1)c1cc(F)ccc1O
recorded.metric: growth
value.measured: -61.4

* * *

- Test system: NCI-H226 lung
- measurement.protocol: NCI-60 one-dose screen, 48 h (100 = growth as untreated, 0 = no growth, -100 = all killed)
- condition.parameters: 10 µM unless noted
Compounds without any hit were thinned out: in the full panel of roughly 83,000, 20% have a hit.
Some molecules, each annotated with its measured growth.
recorded.metric: growth (%)

molecule: CC1=CNNc2c3ncnc-3ncn21
recorded.metric: growth
uom: %
value.measured: 99.7

molecule: CCCCNc1nnc(-c2cc(-c3cc4ccccc4o3)nn2-c2ccccc2)o1
recorded.metric: growth
uom: %
value.measured: 86.2

molecule: COC12CC(=O)C(C(C)=O)=C(O)C1(C)c1c(O)c(C)c(O)c(C(C)=O)c1O2 (stereo unspecified)
recorded.metric: growth
uom: %
value.measured: 81.2

molecule: CCC(c1ccc(OC)cc1)C(CC)c1ccc(O)c(CN2CCCC2)c1 (stereo unspecified)
recorded.metric: growth
uom: %
value.measured: 31.7

molecule: COc1ccccc1OCC(=O)Nc1sc2c(c1C(N)=O)CCC2
recorded.metric: growth
uom: %
value.measured: 80.7

molecule: CSc1nc(-c2cc3ccccc3o2)cc(-c2ccc(Cl)cc2)c1C#N
recorded.metric: growth
uom: %
value.measured: 39.1

molecule: NC(=O)c1ccc2c(c1)OCO2
recorded.metric: growth
uom: %
value.measured: 98.5

molecule: CCSc1nnc(Nc2ccc(C(C)C)cc2)s1
recorded.metric: growth
uom: %
value.measured: 75

molecule: COc1cccc2cc(-c3cc4ccccc4[nH]3)c(=NC(=O)c3ccc(Cl)cc3)oc12
recorded.metric: growth
uom: %
value.measured: 83.2

molecule: CCN1C(=O)N(CC)C2C1NN=c1s/c(=C\c3cccc(F)c3)c(=O)n12 (stereo unspecified)
recorded.metric: growth
uom: %
value.measured: 105

molecule: ClC1=C(Cl)C(Cl)=C(Cl)C1=Cc1ccc(Cl)cc1Cl
recorded.metric: growth
uom: %
value.measured: -33.9
